Biological target: T1, IL-18 receptors on HEK-Blue IL-18 reporter cells (UniProt Q13478 19-541; O95256 20-599, limits assumed)
T1 sequence (looked up) 1: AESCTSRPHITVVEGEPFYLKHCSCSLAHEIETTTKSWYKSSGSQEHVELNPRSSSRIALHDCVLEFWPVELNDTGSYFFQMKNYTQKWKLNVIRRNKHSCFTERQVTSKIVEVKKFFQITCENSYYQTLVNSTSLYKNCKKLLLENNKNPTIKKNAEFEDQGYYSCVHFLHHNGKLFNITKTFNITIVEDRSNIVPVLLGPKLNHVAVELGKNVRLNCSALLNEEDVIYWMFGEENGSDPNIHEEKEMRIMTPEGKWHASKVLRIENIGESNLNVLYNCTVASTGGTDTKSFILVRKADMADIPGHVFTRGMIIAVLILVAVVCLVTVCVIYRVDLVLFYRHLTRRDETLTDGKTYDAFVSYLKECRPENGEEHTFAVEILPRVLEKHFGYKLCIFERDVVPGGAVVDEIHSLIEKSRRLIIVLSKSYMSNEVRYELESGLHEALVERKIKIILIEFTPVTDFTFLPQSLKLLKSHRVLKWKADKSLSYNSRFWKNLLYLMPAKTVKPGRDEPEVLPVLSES
T1 sequence (looked up) 2: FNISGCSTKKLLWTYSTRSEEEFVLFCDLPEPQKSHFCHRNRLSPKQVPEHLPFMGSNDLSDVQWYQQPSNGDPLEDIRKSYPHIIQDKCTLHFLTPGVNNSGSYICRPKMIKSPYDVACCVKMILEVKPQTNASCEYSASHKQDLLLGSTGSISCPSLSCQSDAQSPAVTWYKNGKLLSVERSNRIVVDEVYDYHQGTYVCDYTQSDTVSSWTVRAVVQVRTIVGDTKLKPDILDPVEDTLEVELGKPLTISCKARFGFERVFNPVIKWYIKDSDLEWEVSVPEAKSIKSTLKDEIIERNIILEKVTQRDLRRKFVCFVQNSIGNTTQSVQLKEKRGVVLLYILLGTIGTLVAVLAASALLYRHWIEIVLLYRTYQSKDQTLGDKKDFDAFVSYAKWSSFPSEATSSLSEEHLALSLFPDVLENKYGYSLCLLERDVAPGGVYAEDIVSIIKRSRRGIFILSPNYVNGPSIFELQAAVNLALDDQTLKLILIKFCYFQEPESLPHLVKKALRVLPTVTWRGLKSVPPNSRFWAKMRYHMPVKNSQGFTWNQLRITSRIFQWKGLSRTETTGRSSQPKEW
Experiment: cell-based or functional assay
# Activity, No BP, DF-500000 annotations

| BINDER | Activity, No BP, DF-500000 |
| --- | --- |
| IL-18 variant G3Q, E6H, D54N, S55I, T63S, N91V (ligand) YFQKLHSKLSVIRNLNDQVLFIDQGNRPLFEDMTDSDMRDNAPRTIFIISMYKNIQPRGMAVSISVKSEKISTLSSENKIISFKEMNPPDVIKDTKSDIIFFQRSVPGHDNKMQFESSSYEGYFLASEKERDLFKLILKKEDELGDRSIMFTVQNED | 1.9 |
| IL-18 variant G3I, E6Q, N91M, R104Y (ligand) YFIKLQSKLSVIRNLNDQVLFIDQGNRPLFEDMTDSDMRDNAPRTIFIISMYKDSQPRGMAVTISVKSEKISTLSSENKIISFKEMNPPDMIKDTKSDIIFFQYSVPGHDNKMQFESSSYEGYFLASEKERDLFKLILKKEDELGDRSIMFTVQNED | 2 |
| IL-18 variant N91S, R104H (ligand) YFGKLESKLSVIRNLNDQVLFIDQGNRPLFEDMTDSDMRDNAPRTIFIISMYKDSQPRGMAVTISVKSEKISTLSSENKIISFKEMNPPDSIKDTKSDIIFFQHSVPGHDNKMQFESSSYEGYFLASEKERDLFKLILKKEDELGDRSIMFTVQNED | 0.61 |
